Data origin: patent US20190322730A1

Quick list: Hemolytic Assay IC50, Human CP per entry.
molecular target: human complement component C3 (human, UniProt P01024 23-667; P01024 672-1663); assay: cell-based or functional assay
Sequence (P01024 23-667, chain 1 of 2): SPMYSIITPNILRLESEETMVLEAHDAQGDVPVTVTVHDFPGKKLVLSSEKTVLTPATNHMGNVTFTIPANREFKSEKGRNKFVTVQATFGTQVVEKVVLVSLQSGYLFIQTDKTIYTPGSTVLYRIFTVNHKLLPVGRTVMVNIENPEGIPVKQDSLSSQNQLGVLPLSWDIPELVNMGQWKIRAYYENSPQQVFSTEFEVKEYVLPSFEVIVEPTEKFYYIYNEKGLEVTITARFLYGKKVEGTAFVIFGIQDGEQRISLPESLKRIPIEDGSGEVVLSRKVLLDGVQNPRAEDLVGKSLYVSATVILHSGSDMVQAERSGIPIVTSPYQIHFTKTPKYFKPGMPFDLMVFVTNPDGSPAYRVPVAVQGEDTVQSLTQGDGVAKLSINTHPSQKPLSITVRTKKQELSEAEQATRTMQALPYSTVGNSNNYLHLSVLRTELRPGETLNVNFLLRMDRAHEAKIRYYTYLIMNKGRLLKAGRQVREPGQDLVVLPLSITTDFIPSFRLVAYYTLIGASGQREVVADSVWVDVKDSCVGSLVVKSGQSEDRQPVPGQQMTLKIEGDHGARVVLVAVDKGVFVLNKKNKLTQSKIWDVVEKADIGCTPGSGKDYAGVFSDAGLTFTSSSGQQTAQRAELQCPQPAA
Sequence (P01024 672-1663, chain 2 of 2): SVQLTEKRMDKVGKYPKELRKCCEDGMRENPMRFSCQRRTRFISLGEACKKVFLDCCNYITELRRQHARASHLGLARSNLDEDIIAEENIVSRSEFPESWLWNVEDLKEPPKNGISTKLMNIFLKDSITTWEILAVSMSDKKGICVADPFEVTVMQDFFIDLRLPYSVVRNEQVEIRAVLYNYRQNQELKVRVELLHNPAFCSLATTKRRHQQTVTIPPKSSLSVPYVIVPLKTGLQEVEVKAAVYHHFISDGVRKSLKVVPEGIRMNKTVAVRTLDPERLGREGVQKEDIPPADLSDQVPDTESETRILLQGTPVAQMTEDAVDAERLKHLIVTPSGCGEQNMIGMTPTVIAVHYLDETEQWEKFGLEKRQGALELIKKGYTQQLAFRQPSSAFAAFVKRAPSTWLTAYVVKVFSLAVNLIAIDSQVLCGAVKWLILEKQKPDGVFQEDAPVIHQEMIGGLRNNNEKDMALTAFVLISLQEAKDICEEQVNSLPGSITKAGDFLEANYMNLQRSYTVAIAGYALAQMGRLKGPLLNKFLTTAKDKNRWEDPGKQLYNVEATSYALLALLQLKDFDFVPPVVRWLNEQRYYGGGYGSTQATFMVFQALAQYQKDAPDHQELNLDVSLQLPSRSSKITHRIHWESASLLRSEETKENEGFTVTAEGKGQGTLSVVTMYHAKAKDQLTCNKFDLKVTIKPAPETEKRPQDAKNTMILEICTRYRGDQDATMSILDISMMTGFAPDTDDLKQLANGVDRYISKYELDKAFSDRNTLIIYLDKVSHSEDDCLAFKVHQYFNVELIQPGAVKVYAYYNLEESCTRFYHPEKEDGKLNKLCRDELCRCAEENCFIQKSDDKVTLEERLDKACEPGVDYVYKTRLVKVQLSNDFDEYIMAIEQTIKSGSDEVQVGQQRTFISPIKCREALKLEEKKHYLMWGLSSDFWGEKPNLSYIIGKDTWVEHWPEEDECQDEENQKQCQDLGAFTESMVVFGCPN
Hi! Could you send only the number? It should be in nM, unit omitted.

{"Binder": "antibody 15C12 (antibody, V domains shown, Mouse hybridoma antibody) VH: EIQLQQSGAELEKPGASVKISCKASGYSFTGYNMHWVKQSHGKSLEWIGNINPYYGTTNSNQKFEDKATLTVDKSSSTAYMQLNSLTSEDSAVYYCARGIYYYGTGYPYFDFWGQGTTLTVSS VL: DIQMTQTTSSLSASLGDRVTISCRASQDINNYLNWYLQKPDGTVKLLIYYTSRLHSGVPSRFSGSGSGTDYSLTISNLEQEDLATYFCQQGITLPWTFGGGTKLEIK", "Hemolytic Assay IC50, Human CP, nM": 3.8}
{"Binder": "antibody 62B11 (antibody, V domains shown, Mouse hybridoma antibody) VH: EVKLVESGGGLVQPGGSLKLSCAASGFTFSSYTMSWVRQTPEKRLEWVAYISSGGGTTYYPDTVKGRFTVSRDNAKNTLYLQMSSLRSEDTAMYSCARRYYRGSSLWYFDVWGAGTTVTVSS VL: DIVMTQSPSSLTVTAGEKVTMSCKSSQSLFNSGSQKNFLTWYQQRPGQPPKLLIYWASTRESGVPDRFTGSGSGTDFTLTISSVQAEDLAVYYCQNDYSYPLTFGAGTKLELK", "Hemolytic Assay IC50, Human CP, nM": 4.2}

Turning now to a further binder:
Q: Which Hemolytic Assay IC50, Human CP is reported for this binder? antibody 62F2 (antibody, V domains shown, Mouse hybridoma antibody) VH: DVQLQESGPDLVKPSQSLSLTCTVTGYSITSGYSLHWIRQFPGNKLEWMGYIHYSGSTNYNPSLKSRISITRDTSKNQFFLKLNSVTSEDTATYHCARAWDYLDYWGQGTTLTVSS VL: DIQMTQSPASLSASVGETVTITCRASENIYSQLAWYQQKQGKSPQLLVYDAKTLAEGVPSRFSGSGSDTQFSLKIISLQPEDFGRYYCHHHFGILYTFGGGTKLEMK
Ans: 5
